# subject.of.test: 5-HT-1A serotonin receptor (Rattus norvegicus, UniProt P19327)
# Construct: Hippocampal tissue is dissected and homogenized on ice in 40 vols of buffer; from tissue; host or cells: rat hippocampus, washed membrane homogenate
# Sequence (P19327 whole entry): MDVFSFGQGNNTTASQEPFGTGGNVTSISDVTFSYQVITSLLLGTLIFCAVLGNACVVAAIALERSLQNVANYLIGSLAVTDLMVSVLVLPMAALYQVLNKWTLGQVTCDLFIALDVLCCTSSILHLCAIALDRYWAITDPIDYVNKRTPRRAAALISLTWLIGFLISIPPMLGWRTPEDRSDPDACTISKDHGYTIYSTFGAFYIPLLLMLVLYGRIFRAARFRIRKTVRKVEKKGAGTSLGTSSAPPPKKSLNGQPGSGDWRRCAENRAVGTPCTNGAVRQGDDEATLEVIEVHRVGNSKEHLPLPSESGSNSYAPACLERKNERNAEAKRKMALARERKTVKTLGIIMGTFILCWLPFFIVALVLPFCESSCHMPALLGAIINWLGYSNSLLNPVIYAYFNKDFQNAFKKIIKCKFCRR
# measurement.description: ex vivo inhibition of 5-HT-1A serotonin receptor binding (3H-8-OH-DPAT, hippocampal membranes)
# condition.set: Table 3; rat hippocampal tissue, 3H-8-OH-DPAT; read-out: Inhibition Constant (Ki)
Counter-ions that a name gives are not always drawn.
readout: pKi
One number for each entry, as −log10 of the molar value.

Hey, can you go through the list below and give me pKi for every item?
1. O=C1N(CCCCN2CCN(c3ncccn3)CC2)C(=O)C23C4CCC(C4)C12C1CCC3C1 (centres unmarked) [Example 4, dihydrochloride]
2. O=C1N(CCCCN2CCN(c3ncccn3)CC2)C(=O)C23C4C=CC(C4)C12C1C=CC3C1 (centres unmarked) [Example 1, dihydrochloride, hemihydrate]

[reply]
8.15
7.85
